Data origin: the RNAGym collection of RNA variant scans (doi:10.1093/molbev/msab373)

B1: Azoarcus group I ribozyme (parent)
chain: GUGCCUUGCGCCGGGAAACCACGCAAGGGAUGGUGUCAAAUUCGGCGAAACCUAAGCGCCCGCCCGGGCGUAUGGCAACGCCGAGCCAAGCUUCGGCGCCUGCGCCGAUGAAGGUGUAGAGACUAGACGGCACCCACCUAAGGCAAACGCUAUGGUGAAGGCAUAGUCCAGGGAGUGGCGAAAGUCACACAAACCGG

variants of: B1; experiment: reverse-splicing fitness (ratio to wild type); higher = more active; in vitro selection; Mg2+ level not given
Item-by-item account of reverse-splicing fitness
Just the number, please, no unit attached.

C82A A111C A120C C150G C169G U176C: 0.00606
C82A A111G C150A: 0.0352
C82G A145G C169U U176C: 0.0155

IN: Query (variant): C82G A120U A145U C169G U176C ; field requested: reverse-splicing fitness
OUT: 0.00292

IN: Look at this variant and give its reported reverse-splicing fitness. C82U A120C A145U C150A C169A
OUT: 0.00683

IN: Please give the measured reverse-splicing fitness for this variant: C82G A120U A145G C150U C169A U176C
OUT: 0.0027

IN: Tell me the measured reverse-splicing fitness of C82U A120U A145C C169A U176A , please.
OUT: 0.00163

IN: reverse-splicing fitness for A120G A145C U176A ?
OUT: 0.179
